Every entry's value here was drawn from patent US20160313303A1.

test system: Human airway epithelial cell line BEAS-2B; assay: Cytotoxicity test (WST-8 assay) after direct contact of test liquids with cells for about 2 hours; normalized cell survival rate; conditions: direct contact with test liquid about 2 hours, WST-8 24 hours after contact, control liquid (0.5% FBS-containing RPMI-1640) = 1
value-type: Normalized cell survival rate

>>> print(df.to_string())
                                   compound                     value_type  recorded_measurement
0         O [P1, Water, reference compound]  Normalized cell survival rate                  0.01
1                   C[Si](C)(C)O[Si](C)(C)C  Normalized cell survival rate                     0
2  FC(F)(F)C(F)(F)C(F)(F)C(F)(F)C(F)(F)C(F)(F)C(F)(F)C(F)(F)Br  Normalized cell survival rate                   1.2
3  C[Si](C)(C)O[Si](C)(C)O[Si](C)(C)O[Si](C)(C)C  Normalized cell survival rate                  0.92
4  CCOCC [P4, Diethyl ether, reference compound]  Normalized cell survival rate                  0.01
5  OCC(F)(F)C(F)(F)C(F)(F)C(F)(F)C(F)(F)C(F)F  Normalized cell survival rate                  0.01
6                  COC(F)(F)C(F)(F)C(F)(F)F  Normalized cell survival rate                  1.01
7        C[Si](C)(C)O[Si](C)(C)O[Si](C)(C)C  Normalized cell survival rate                  0.05
8  CC(C)=O [P3, Acetone, reference compound]  Normalized cell survival rate                  0.01

----------
Readings of Normalized cell survival rate for the listed compounds
tested on: Human airway epithelial cell line BEAS-2B; test: Cytotoxicity test (WST-8 assay) after direct contact of test liquids with cells for about 2 hours; normalized cell survival rate; conditions: direct contact with test liquid about 2 hours, WST-8 24 hours after contact, control liquid (0.5% FBS-containing RPMI-1640) = 1
value-type: Normalized cell survival rate

>>> print(df.to_string())
                                   compound                     value_type  recorded_measurement
0                FC(F)(F)c1cccc(C(F)(F)F)c1  Normalized cell survival rate                  0.01
1           COC(F)(F)C(F)(F)C(F)(F)C(F)(F)F  Normalized cell survival rate                  1.04
2  COC(F)(C(F)(F)C(F)(F)F)C(F)(C(F)(F)F)C(F)(F)F (centres unmarked)  Normalized cell survival rate                  0.92
3  C[Si]1(C)O[Si](C)(C)O[Si](C)(C)O[Si](C)(C)O[Si](C)(C)O1  Normalized cell survival rate                  0.92
4     CCO [P2, Ethanol, reference compound]  Normalized cell survival rate                  0.01
